Biological target: murine CD38 (Mus musculus)
Construct: from tissue; host or cells: WT ICR mouse tissues (brain, liver, lung, heart, kidney, spleen, ileum, skeletal muscle)
Experiment: CD38 cyclase activity in tissues from WT mice
Format: biochemical
Settings: Spleen, WT mice; Figure 1E
Description: The cyclase activity of CD38 was measured as previously described ([Higashida et al., 1999]; [Jin et al., 2007]). CD38 cyclase activity was measured using 60 μM NGD as a substrate in cyclase reaction buffer (100 mM KCl, 10 μM CaCl2, and 50 mM Tris-HCl, pH 6.6). […] The reaction buffer for hydrolase or cyclase assays was excited at 300 nm, and fluorescence emission was measured every second at 410 nm by Shimazu RF-6000 spectrofluorometer. […]
value-type: Ki (µM)
Give bare numbers, in µM.

// query For the molecule O=c1[nH]c(=O)c2[nH]c(=O)[nH]c2[nH]1 , what Ki is on record?
// result 78.1

###

Target: murine CD38 (Mus musculus, UniProt P56528)
Construct: from tissue; host or cells: WT ICR mouse tissues (brain, liver, lung, heart, kidney, spleen, ileum, skeletal muscle)
Sequence (P56528 1-304): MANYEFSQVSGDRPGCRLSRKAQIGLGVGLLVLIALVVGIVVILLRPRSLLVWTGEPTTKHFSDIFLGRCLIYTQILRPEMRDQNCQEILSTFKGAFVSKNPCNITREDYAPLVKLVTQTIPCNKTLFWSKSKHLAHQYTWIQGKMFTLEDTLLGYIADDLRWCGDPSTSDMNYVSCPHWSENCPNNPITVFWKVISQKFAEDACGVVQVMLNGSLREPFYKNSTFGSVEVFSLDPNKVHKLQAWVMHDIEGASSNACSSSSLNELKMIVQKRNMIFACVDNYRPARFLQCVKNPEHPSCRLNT
Experiment: CD38 cyclase activity in tissues from WT mice
Type: biochemical
Conditions: Lung, WT mice; Figure 1E
value-type: Ki

// query For the compound O=c1[nH]c(=O)c2[nH]c(=O)[nH]c2[nH]1 [sUA, uric acid] , what Ki is on record?
// result 77 µM

###

Target: murine CD38 (Mus musculus)
Construct: from tissue; host or cells: WT ICR mouse tissues (brain, liver, lung, heart, kidney, spleen, ileum, skeletal muscle)
Test: CD38 hydrolase activity in tissues from WT mice
Assay type: biochemical
Settings: lung tissues from WT mice, OA 0–5 mM
value-type: pIC50
Answers are plain numbers, as −log10 of the molar value.

// query For the compound O=C(O)c1nc(=O)[nH]c(=O)[nH]1 [OA, oxonic acid, reference compound] , what pIC50 is on record?
// result 2.66

###

Target: murine CD38 (Mus musculus, UniProt P56528)
Construct: from tissue; host or cells: WT ICR mouse tissues (brain, liver, lung, heart, kidney, spleen, ileum, skeletal muscle)
Sequence (P56528 1-304): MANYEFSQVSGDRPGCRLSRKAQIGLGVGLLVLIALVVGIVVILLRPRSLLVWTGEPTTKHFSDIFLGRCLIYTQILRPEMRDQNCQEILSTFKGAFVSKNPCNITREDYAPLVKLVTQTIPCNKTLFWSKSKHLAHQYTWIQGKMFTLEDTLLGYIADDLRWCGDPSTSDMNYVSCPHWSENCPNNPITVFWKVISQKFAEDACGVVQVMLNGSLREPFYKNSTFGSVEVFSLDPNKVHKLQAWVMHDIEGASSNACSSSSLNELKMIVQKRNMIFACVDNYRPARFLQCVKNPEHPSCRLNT
Experiment: CD38 cyclase activity in tissues from WT mice
Assay type: biochemical
Conditions: lung tissues from WT mice, OA 0–5 mM
value-type: pIC50
Answers are plain numbers, as −log10 of the molar value.

// query For the compound O=C(O)c1nc(=O)[nH]c(=O)[nH]1 [OA, oxonic acid, reference compound] , what pIC50 is on record?
// result 2.35

###

Target: murine CD38 (Mus musculus)
Construct: from tissue; host or cells: WT ICR mouse tissues (brain, liver, lung, heart, kidney, spleen, ileum, skeletal muscle)
Assay: CD38 hydrolase activity in tissues from WT mice
Type: biochemical
Conditions: Liver, WT mice; Figure 1E
value-type: pKi
Numbers only, as −log10 of the molar value.

// query Kindly state the measured pKi obtained for O=c1[nH]c(=O)c2[nH]c(=O)[nH]c2[nH]1 [sUA, uric acid] with murine CD38 (Mus musculus).
// result 4.11

###

Molecular target: recombinant human CD38 (hCD38) (Homo sapiens)
Construct: the commercial recombinant hCD38 without a transmembrane region was partially used in this study; purchased Sino Biological 10818-H08H
Sequence (P28907 43-300 limits assumed): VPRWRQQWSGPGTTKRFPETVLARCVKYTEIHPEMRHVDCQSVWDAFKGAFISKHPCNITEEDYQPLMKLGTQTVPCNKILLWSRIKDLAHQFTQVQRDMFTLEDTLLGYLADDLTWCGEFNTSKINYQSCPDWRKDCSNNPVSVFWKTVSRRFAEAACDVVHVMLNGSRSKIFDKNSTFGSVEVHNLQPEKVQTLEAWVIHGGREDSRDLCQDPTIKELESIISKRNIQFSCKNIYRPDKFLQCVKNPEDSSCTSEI
Assay: CD38 hydrolase activity, recombinant hCD38 (ε-NAD+ substrate)
Format: biochemical
Conditions: sUA 0–500 μM, Figure 1B
Protocol: The hydrolase activity of CD38 was measured according to a previous report ([de Oliveira et al., 2018]) with minor modifications. CD38 hydrolase activity was measured using 50 μM ε-NAD^+ as a substrate in hydrolase reaction buffer (250 mM sucrose, 40 mM Tris-HCl, pH 7.4). […] The reaction buffer for hydrolase or cyclase assays was excited at 300 nm, and fluorescence emission was measured every second at 410 nm by Shimazu RF-6000 spectrofluorometer. […]
value-type: Ki (µM)
Give bare numbers, in µM.

// query For the compound O=c1[nH]c(=O)c2[nH]c(=O)[nH]c2[nH]1 , what Ki is on record?
// result 65.7

###

Target: murine CD38 (Mus musculus, UniProt P56528)
Construct: from tissue; host or cells: WT ICR mouse tissues (brain, liver, lung, heart, kidney, spleen, ileum, skeletal muscle)
Assay: CD38 hydrolase activity in tissues from WT mice
Type: biochemical
Conditions: Spleen, WT mice; Figure 1E
value-type: Ki (µM)
Numbers only, in µM.

// query Kindly state the measured Ki obtained for O=c1[nH]c(=O)c2[nH]c(=O)[nH]c2[nH]1 with murine CD38 (Mus musculus, UniProt P56528).
// result 70.5

###

Biological target: murine CD38 (Mus musculus, UniProt P56528)
Construct: from tissue; host or cells: WT ICR mouse tissues (brain, liver, lung, heart, kidney, spleen, ileum, skeletal muscle)
Assay: CD38 cyclase activity in tissues from WT mice
Assay type: biochemical
Details: Liver, WT mice; Figure 1E
value-type: pKi
Give bare numbers, as −log10 of the molar value.

// query For the molecule O=c1[nH]c(=O)c2[nH]c(=O)[nH]c2[nH]1 , what pKi is on record?
// result 4.12

###

Molecular target: recombinant human CD38 (hCD38) (Homo sapiens)
Construct: the commercial recombinant hCD38 without a transmembrane region was partially used in this study; purchased Sino Biological 10818-H08H
Assay: CD38 cyclase activity, recombinant hCD38 (NGD substrate)
Type: biochemical
Conditions: sUA 0–500 μM, Figure 1B
value-type: Ki

// query For the compound O=c1[nH]c(=O)c2[nH]c(=O)[nH]c2[nH]1 , what Ki is on record?
// result 57.1 µM

###

Molecular target: murine CD38 (Mus musculus, UniProt P56528)
Construct: from tissue; host or cells: WT ICR mouse tissues (brain, liver, lung, heart, kidney, spleen, ileum, skeletal muscle)
Test: CD38 hydrolase activity in tissues from WT mice
Type: biochemical
Conditions: Lung, WT mice; Figure 1E
value-type: pKi
Numbers only, as −log10 of the molar value.

// query For the molecule O=c1[nH]c(=O)c2[nH]c(=O)[nH]c2[nH]1 , what pKi is on record?
// result 4.08

###

Molecular target: murine CD38 (Mus musculus, UniProt P56528)
Construct: from tissue; host or cells: WT ICR mouse tissues (brain, liver, lung, heart, kidney, spleen, ileum, skeletal muscle)
Test: CD38 cyclase activity in tissues from WT mice
Format: biochemical
Conditions: Skeletal muscle, WT mice; Figure 1E
value-type: pKi
One number for each entry, as −log10 of the molar value.

// query Kindly state the measured pKi obtained for O=c1[nH]c(=O)c2[nH]c(=O)[nH]c2[nH]1 [sUA, uric acid] with murine CD38 (Mus musculus, UniProt P56528).
// result 4.03

###

Target: murine CD38 (Mus musculus, UniProt P56528)
Construct: from tissue; host or cells: WT ICR mouse tissues (brain, liver, lung, heart, kidney, spleen, ileum, skeletal muscle)
Sequence (P56528 1-304): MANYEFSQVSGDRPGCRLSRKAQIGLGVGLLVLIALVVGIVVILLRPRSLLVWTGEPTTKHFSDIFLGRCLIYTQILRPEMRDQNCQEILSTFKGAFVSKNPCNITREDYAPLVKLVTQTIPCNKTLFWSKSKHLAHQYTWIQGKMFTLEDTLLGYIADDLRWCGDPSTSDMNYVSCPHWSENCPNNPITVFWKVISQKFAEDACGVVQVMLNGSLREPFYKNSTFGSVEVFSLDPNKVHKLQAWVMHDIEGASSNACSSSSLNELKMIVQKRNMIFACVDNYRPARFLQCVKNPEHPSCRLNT
Test: CD38 hydrolase activity in tissues from WT mice
Assay type: biochemical
Conditions: Ileum, WT mice; Figure 1E
value-type: Ki (µM)
Answers are plain numbers, in µM.

// query For the molecule O=c1[nH]c(=O)c2[nH]c(=O)[nH]c2[nH]1 , what Ki is on record?
// result 79.9

Sourced from paper PMC11554305
